# test_system: T1, Bcl-w
# T1 chain: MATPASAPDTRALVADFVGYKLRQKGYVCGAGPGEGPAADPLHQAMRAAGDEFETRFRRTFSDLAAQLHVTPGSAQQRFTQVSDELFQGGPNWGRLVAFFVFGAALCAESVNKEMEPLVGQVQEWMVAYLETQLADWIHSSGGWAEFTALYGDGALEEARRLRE
# run_description: competition phage ELISA
measurement_kind: Fold/wt (fold)
Expressed in fold, but write only the number.

Name the recorded Fold/wt of the binder listed here: NLWAAQRYGRELRRASDEFVDSFKKG (M13 phage display: FLAG-26mer-GGGT-g3(249-406)) [Bad BH3 M15A, phage-displayed]
1

Name the recorded Fold/wt of the binder listed here: NLWAAQRYGRELRRMSDEFVDSAKKG (M13 phage display: FLAG-26mer-GGGT-g3(249-406)) [Bad BH3 F23A, phage-displayed]
2

Name the recorded Fold/wt of the binder listed here: NLWAAQRYGRELRRMSDEFVDSFAKG (M13 phage display: FLAG-26mer-GGGT-g3(249-406)) [Bad BH3 K24A, phage-displayed]
1

Name the recorded Fold/wt of the binder listed here: NLWAAQRYGRELRRMSDEFADSFKKG (M13 phage display: FLAG-26mer-GGGT-g3(249-406)) [Bad BH3 V20A, phage-displayed]
1

Name the recorded Fold/wt of the binder listed here: NLWAAQRYGRELRRMSDEFVDSFKKG (M13 phage display: FLAG-26mer-GGGT-g3(249-406); also called wtBad) [Bad BH3 wild type, phage-displayed]
1

Name the recorded Fold/wt of the binder listed here: NAWAAQRYGRELRRMSDEFVDSFKKG (M13 phage display: FLAG-26mer-GGGT-g3(249-406)) [Bad BH3 L2A, phage-displayed]
1

Name the recorded Fold/wt of the binder listed here: NLWAAQRYGRELRRMSAEFVDSFKKG (M13 phage display: FLAG-26mer-GGGT-g3(249-406)) [Bad BH3 D17A, phage-displayed]
3

Name the recorded Fold/wt of the binder listed here: ALWAAQRYGRELRRMSDEFVDSFKKG (M13 phage display: FLAG-26mer-GGGT-g3(249-406)) [Bad BH3 N1A, phage-displayed]
1

Name the recorded Fold/wt of the binder listed here: NLWAEQRYGRELRRMSDEFVDSFKKG (M13 phage display: FLAG-26mer-GGGT-g3(249-406)) [Bad BH3 A5E, phage-displayed]
4

Name the recorded Fold/wt of the binder listed here: NLWAAARYGRELRRMSDEFVDSFKKG (M13 phage display: FLAG-26mer-GGGT-g3(249-406)) [Bad BH3 Q6A, phage-displayed]
1

Name the recorded Fold/wt of the binder listed here: NLAAAQRYGRELRRMSDEFVDSFKKG (M13 phage display: FLAG-26mer-GGGT-g3(249-406)) [Bad BH3 W3A, phage-displayed]
1

Name the recorded Fold/wt of the binder listed here: NLWAAQRAGRELRRMSDEFVDSFKKG (M13 phage display: FLAG-26mer-GGGT-g3(249-406)) [Bad BH3 Y8A, phage-displayed]
2

Name the recorded Fold/wt of the binder listed here: NLWAAQRYGRELRAMSDEFVDSFKKG (M13 phage display: FLAG-26mer-GGGT-g3(249-406)) [Bad BH3 R14A, phage-displayed]
2
